The entries below come with measured IC50 values attached.
Biological target: human TRPA1 channel (Homo sapiens (Human), UniProt O75762)
Sequence (O75762 whole entry): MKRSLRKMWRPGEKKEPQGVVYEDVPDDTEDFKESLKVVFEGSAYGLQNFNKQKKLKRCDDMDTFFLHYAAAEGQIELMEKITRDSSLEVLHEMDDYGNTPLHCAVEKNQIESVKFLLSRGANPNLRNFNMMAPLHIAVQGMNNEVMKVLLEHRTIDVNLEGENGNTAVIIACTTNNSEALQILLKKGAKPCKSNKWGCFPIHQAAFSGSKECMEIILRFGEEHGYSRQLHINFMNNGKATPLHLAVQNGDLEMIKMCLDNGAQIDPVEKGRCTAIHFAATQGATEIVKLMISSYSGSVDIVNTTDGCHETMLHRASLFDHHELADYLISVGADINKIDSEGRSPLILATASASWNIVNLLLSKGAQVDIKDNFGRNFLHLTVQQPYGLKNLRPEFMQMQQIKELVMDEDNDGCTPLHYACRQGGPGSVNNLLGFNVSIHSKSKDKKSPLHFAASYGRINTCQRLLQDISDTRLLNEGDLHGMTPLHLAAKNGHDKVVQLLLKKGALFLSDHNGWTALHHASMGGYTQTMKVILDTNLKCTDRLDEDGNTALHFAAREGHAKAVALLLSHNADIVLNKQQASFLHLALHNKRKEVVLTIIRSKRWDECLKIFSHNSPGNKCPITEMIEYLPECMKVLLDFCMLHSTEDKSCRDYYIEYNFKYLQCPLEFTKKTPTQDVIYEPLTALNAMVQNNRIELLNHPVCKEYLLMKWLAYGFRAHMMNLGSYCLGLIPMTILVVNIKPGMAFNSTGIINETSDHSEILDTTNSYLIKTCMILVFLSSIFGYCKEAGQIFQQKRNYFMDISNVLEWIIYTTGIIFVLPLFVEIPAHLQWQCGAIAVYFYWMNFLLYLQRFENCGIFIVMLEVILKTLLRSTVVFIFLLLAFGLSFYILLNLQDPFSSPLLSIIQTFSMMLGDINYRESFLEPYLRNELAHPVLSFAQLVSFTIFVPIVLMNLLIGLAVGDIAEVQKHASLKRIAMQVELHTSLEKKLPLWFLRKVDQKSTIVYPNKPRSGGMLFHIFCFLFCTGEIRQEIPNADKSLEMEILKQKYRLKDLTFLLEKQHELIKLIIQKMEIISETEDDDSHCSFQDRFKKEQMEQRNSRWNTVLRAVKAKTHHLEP
Experiment: TRPA1 inhibitor activity, automated patch clamp (SyncroPatch)
Type: cell-based
Settings: CHO cells inducibly expressing human TRPA1; currents elicited by carvacrol (300 μM), holding potential −60 mV; Table 5
Method: This assay was used to evaluate the disclosed compounds' inhibition activities against the human TRPA1 channel. CHO cells inducibly expressing human TRPA1 were grown in DMEM containing 10% heat-inactivated FBS, 1 mM Sodium Pyruvate, 2 mM L-Glutamine, Zeocin (100 μg/ml) and Blasticidin (10 μg/ml). Expression was induced by addition of Doxycycline (1 μg/ml) 24 hours before experiments. […]
quantity name: IC50

{"structure smiles": "Cc1c(Cl)ncn(Cc2nc(C[C@H](O)c3ccc(Cl)cc3)no2)c1=O", "quantity name": "IC50", "reported result": "< 100 nM"}
{"structure smiles": "N#Cc1ncn(Cc2nc(C[C@H](O)c3ccc(Cl)cc3)no2)c(=O)c1Cl", "quantity name": "IC50", "reported result": "< 100 nM"}
{"structure smiles": "O=c1c(Br)c(Cl)ncn1Cc1nc(C[C@H](O)c2ccc(Cl)cc2)no1", "quantity name": "IC50", "reported result": "< 100 nM"}
{"structure smiles": "O=c1c(Cl)c(CO)ncn1Cc1nc(C[C@H](O)c2ccc(Cl)cc2)no1", "quantity name": "IC50", "reported result": "< 300 nM"}
{"structure smiles": "Nc1c(Cl)ncn(Cc2nc(C[C@H](O)c3ccc(Cl)cc3)no2)c1=O", "quantity name": "IC50", "reported result": "< 300 nM"}
{"structure smiles": "Nc1ncc(Cl)c(=O)n1Cc1nc(C[C@H](O)c2ccc(Cl)cc2)no1", "quantity name": "IC50", "reported result": "< 100 nM"}
{"structure smiles": "O=c1c(Cl)c(-c2cn[nH]c2)ccn1Cc1nc(C[C@H](O)c2ccc(Cl)cc2)no1", "quantity name": "IC50", "reported result": "< 1000 nM"}

---

Biological target: human TRPA1 channel (Homo sapiens (Human))
Experiment: TRPA1 inhibitor activity, automated patch clamp (SyncroPatch)
Format: cell-based
Settings: CHO cells inducibly expressing human TRPA1; currents elicited by carvacrol (300 μM), holding potential −60 mV; Table 4
The entries below come with measured IC50 values attached.

{"structure smiles": "Cc1ccc(Cl)c(=O)n1Cc1nc(C[C@H](O)c2ccc(Cl)cc2)no1", "IC50": "< 1000 nM"}
{"structure smiles": "Cc1nc(Cl)cn(Cc2nc(CCc3ccc(Cl)cc3)no2)c1=O", "IC50": "< 1000 nM"}
{"structure smiles": "Cc1c(CO)ccn(Cc2nc(CCc3ccc(Cl)cc3)no2)c1=O", "IC50": "< 3000 nM"}
{"structure smiles": "Cn1cc(-c2ccn(Cc3nc(C[C@H](O)c4ccc(Cl)cc4)no3)c(=O)c2Cl)cn1", "IC50": "< 1000 nM"}
{"structure smiles": "Cc1cc(C#N)cn(Cc2nc(CCc3ccc(Cl)cc3)no2)c1=O", "IC50": "< 1000 nM"}

---

The entries below come with measured IC50 values attached.
Target: human TRPA1 channel (Homo sapiens (Human), UniProt O75762)
Assay: TRPA1 inhibitor activity, automated patch clamp (SyncroPatch)
Type: cell-based
Settings: CHO cells inducibly expressing human TRPA1; currents elicited by carvacrol (300 μM), holding potential −60 mV; Table 4
quantity name: IC50

{"compound": "Cc1ncc(C)n(Cc2nc(C[C@H](O)c3ccc(Cl)cc3)no2)c1=O [Compound 31]", "reported result": "< 1000 nM"}
{"compound": "CNC(=O)c1cc(C)c(=O)n(Cc2nc(CCc3ccc(Cl)cc3)no2)c1 [Compound 9]", "reported result": "< 1000 nM"}
{"compound": "Cc1c(-c2cn[nH]c2)ccn(Cc2nc(CCc3ccc(Cl)cc3)no2)c1=O [Compound 15]", "reported result": "< 3000 nM"}
{"compound": "Cc1cccn(Cc2nc(CCc3ccc(Cl)cc3)no2)c1=O [Compound 1]", "reported result": "< 10000 nM"}
{"compound": "C=Cc1ccn(Cc2nc(CCc3ccc(Cl)cc3)no2)c(=O)c1C [Compound 13]", "reported result": "< 3000 nM"}
{"compound": "Cc1cc(Cl)cn(Cc2nc(CCc3ccc(Cl)cc3)no2)c1=O [Compound 5]", "reported result": "< 3000 nM"}
{"compound": "O=c1c(Cl)c(CO)ccn1Cc1nc(C[C@H](O)c2ccc(Cl)cc2)no1 [Compound 17]", "reported result": "< 1000 nM"}
{"compound": "O=c1c(Cl)c(-c2cn[nH]c2)ncn1Cc1nc(C[C@H](O)c2ccc(Cl)cc2)no1 [Compound 35]", "reported result": "< 300 nM"}
{"compound": "O=c1c(Cl)nccn1Cc1nc(C[C@H](O)c2ccc(Cl)cc2)no1 [Compound 22]", "reported result": "< 300 nM"}
{"compound": "Cc1cc(CO)cn(Cc2nc(CCc3ccc(Cl)cc3)no2)c1=O [Compound 16]", "reported result": "< 3000 nM"}
{"compound": "Cc1ncn(Cc2nc(C[C@H](O)c3ccc(Cl)cc3)no2)c(=O)c1Cl [Compound 36]", "reported result": "< 100 nM"}
{"compound": "Nc1ccn(Cc2nc(C[C@H](O)c3ccc(Cl)cc3)no2)c(=O)c1Cl [Compound 14]", "reported result": "< 3000 nM"}
{"compound": "Cc1nc(C(N)=O)cn(Cc2nc(C[C@H](O)c3ccc(Cl)cc3)no2)c1=O [Compound 29]", "reported result": "< 300 nM"}
{"compound": "Cc1c(CN)ncn(Cc2nc(CCc3ccc(Cl)cc3)no2)c1=O [Compound 30]", "reported result": "< 300 nM"}
{"compound": "Cc1nc(C)c(=O)n(Cc2nc(CCc3ccc(Cl)cc3)no2)c1C [Compound 23]", "reported result": "< 1000 nM"}
{"compound": "COC(=O)c1cc(C)c(=O)n(Cc2nc(CCc3ccc(Cl)cc3)no2)c1 [Compound 10]", "reported result": "< 3000 nM"}
{"compound": "Cc1nccn(Cc2nc(CCc3ccc(Cl)cc3)no2)c1=O [Compound 25]", "reported result": "< 3000 nM"}
{"compound": "Cc1cc(C(N)=O)cn(Cc2nc(CCc3ccc(Cl)cc3)no2)c1=O [Compound 4]", "reported result": "< 1000 nM"}
{"compound": "Cc1cc(-c2cn[nH]c2)cn(Cc2nc(CCc3ccc(Cl)cc3)no2)c1=O [Compound 8]", "reported result": "< 10000 nM"}
{"compound": "O=c1c(Cl)nc(Br)cn1Cc1nc(C[C@H](O)c2ccc(Cl)cc2)no1 [Compound 21]", "reported result": "< 300 nM"}
{"compound": "O=c1c(C(F)(F)F)cccn1Cc1nc(CCc2ccc(Cl)cc2)no1 [Compound 7]", "reported result": "< 10000 nM"}
{"compound": "N#Cc1cc(Br)c(=O)n(Cc2nc(CCc3ccc(Cl)cc3)no2)c1 [Compound 3]", "reported result": "< 1000 nM"}
